Some compounds, each annotated with its measured IC50.
# Study target: endothelial lipase (EL) (Homo sapiens (Human))
# Sequence (Q9Y5X9 21-500): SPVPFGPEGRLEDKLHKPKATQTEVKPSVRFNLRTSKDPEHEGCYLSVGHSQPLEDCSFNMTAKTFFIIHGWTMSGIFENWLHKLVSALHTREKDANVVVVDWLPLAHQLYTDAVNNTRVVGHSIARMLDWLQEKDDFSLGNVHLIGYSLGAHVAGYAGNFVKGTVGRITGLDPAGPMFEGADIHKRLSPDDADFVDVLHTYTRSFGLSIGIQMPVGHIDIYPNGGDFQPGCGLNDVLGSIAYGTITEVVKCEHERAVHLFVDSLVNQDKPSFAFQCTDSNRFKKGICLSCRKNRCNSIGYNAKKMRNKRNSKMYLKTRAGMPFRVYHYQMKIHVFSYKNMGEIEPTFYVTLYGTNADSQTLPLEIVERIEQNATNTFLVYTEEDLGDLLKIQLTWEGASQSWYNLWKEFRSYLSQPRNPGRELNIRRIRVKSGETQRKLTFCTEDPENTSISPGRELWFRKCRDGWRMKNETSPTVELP
# Assay notes: Test for inhibition of EL (assay for EL activity)
# Type: biochemical
# Details: phospholipase-specific Bodipy phosphocholine substrate; 37° C. for 90 minutes; enzyme from conditioned medium of recombinant cell lines (CHO, HEK293)
The reply must contain the numeric value and, after it, the unit.

Observe how each entry below is paired with its result.
[
  {
    "Compound": "Cc1ccccc1CNC(=O)n1sc2ncccc2c1=O",
    "IC50": "1580 nM"
  },
  {
    "Compound": "COc1cc(CNC(=O)n2sc3ncccc3c2=O)ccc1OCCN(C)C",
    "IC50": "1380 nM"
  },
  {
    "Compound": "COCCOc1ccc([C@@H](C)NC(=O)n2sc3ncccc3c2=O)cc1OC",
    "IC50": "80 nM"
  },
  {
    "Compound": "COc1cc(C(C)NC(=O)n2sc3ncccc3c2=O)cc(OC)c1OC (stereo not drawn)",
    "IC50": "40 nM"
  },
  {
    "Compound": "COCCOc1ccc(CNC(=O)n2sc3ncccc3c2=O)cn1",
    "IC50": "216 nM"
  },
  {
    "Compound": "O=C(NCc1ccccc1)n1sc2ncccc2c1=O",
    "IC50": "69 nM"
  },
  {
    "Compound": "COCCN1CCC(CNC(=O)n2sc3ncccc3c2=O)CC1",
    "IC50": "517 nM"
  },
  {
    "Compound": "Cc1cccc(C)c1CNC(=O)n1sc2ncccc2c1=O",
    "IC50": "120 nM"
  },
  {
    "Compound": "CC(NC(=O)n1sc2ncccc2c1=O)c1ccc2c(c1)OCCO2 (stereo not drawn)",
    "IC50": "200 nM"
  },
  {
    "Compound": "CCOc1ccc(CNC(=O)n2sc3ncccc3c2=O)cc1OC",
    "IC50": "230 nM"
  }
]

# input Entry `COc1cccc(CNC(=O)n2sc3ncccc3c2=O)c1` , system endothelial lipase (EL) (Homo sapiens (Human)): what IC50 was measured?
# output 182 nM

# input For `CC(C)Oc1ncccc1CNC(=O)n1sc2ncccc2c1=O` then?
# output 1590 nM

# input Also CC(NC(=O)n1sc2ncccc2c1=O)c1ccc(N2CCOCC2)cc1 (stereo not drawn) ?
# output 391 nM

# input Consider next the compound CC(C)C(NC(=O)n1sc2ncccc2c1=O)c1ccc2c(c1)OCCCO2 (stereo not drawn) in the same way.
# output 28 nM

# input What would you report for COc1ccc(C(C)NC(=O)n2sc3ncccc3c2=O)cc1OC (stereo not drawn) ?
# output 148 nM
